Molecular target: SARS-CoV-2 Omicron (B.1.1.529) RBD (SARS-CoV-2 Omicron B.1.1.529 (BA.1), strain)
Value Kind: binding result

Binder: BD-708 (antibody, V domains shown) VH: QVQLVESGGGVVQPGRSLRLSCAASGFTLSNYAMHWVRQAPGTGLEWVAVISDDGSIKFYADSVKGRFTISRDNSKNTLYLQMNSLRAEDTAVYYCARDGDDSSGYFFDYWGQGTLVTVSS VL: DIQMTQSPSSLSASVGDRVTITCRASQGINNFLAWYQQKPGKAPKLLLYSASRLESGVPSRFSGSGSGTDYTLTISSLQPEDFATYYCQQYYSTLALTFGGGTKVEIK
Value Kind: binding result
Value Measured: binds
//
Binder: COVOX-222 (antibody, V domains shown) VH: EVQLVESGGGLIQPGGSLRLSCAASGLTVSSNYMSWVRQAPGKGLEWVSVIYSGGSTFYADSVKGRFTISRDNSKNTLYLQMNSLGAEDTAVYYCARGEGSPGNWFDPWGQGTLVTVSS VL: DVVMTQSPGTLSLSPGERATLSCRASQSVPSSYLAWYQQKPGQAPRLLIYGASTRATGIPDRFSGSGSGTDFTLTISRLEPEDFAVYYCQHYDTSPRFGGGTKVDIK
Value Kind: binding result
Value Measured: binds
//
Binder: BD-796 (antibody, V domains shown) VH: QVQLVQSGAEVKKPGSSVKVSCKASGGTFSSYAINWMRQAPGQGLEWMGGIIPILGIPNSAQKFQGRVTITADKSTSTAYMELSSLRSEDTAVYYCARMYNYDSSGLEADAFDIWGQGTMVTVSS VL: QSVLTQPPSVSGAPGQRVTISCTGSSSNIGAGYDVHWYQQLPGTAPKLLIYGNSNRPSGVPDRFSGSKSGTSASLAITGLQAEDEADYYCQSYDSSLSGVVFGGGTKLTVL
Value Kind: binding result
Value Measured: binds
//
Binder: BD55-3372 (antibody, V domains shown) VH: EVHLVESGGGLVKPGGSLRLSCAASGFTFSNYAMNWVRQAPGKGLQWVSSITGSSSFIFYADSVKGRFTIVRDNAQNSLYLQMNSLRDEDTAVYYCARERDDYDTRLDWGQGTLVTVSS VL: QPMLTQPPSVSGAPGQTVTISCVGSSSNIGAGYEVHWYQQLPGTAPKRLLSGNSDRPSGVPDRFSGSKSGTSASLAITGLQADDEADYYCQSYDSSLSLSAVVFGGGTKLTVL
Value Kind: binding result
Value Measured: binds
//
Binder: BD55-5339 (antibody, V domains shown) VH: EVQLVESGEGLVQPGGSLRISCAASGFTFSNYPMHWVRQAPGQGLESVSSITSNGDGTFYANSVKGRFTISRDNSKNTLYLQMGSLRTEDTALYFCAREVAEQLDCYFDLWGRGTLVTVSS VL: DIQMTQSPSSLSASVGDRVTITCRASQSIRTYLNWYQHKPGKAPKLLIFAASSLQSGVPSRFSGSGSGTDFSLTISSLQPEDFATYYCQQSYITPPITFGQGTRLEIK
Value Kind: binding result
Value Measured: binds
//
Binder: COV2-2828 (antibody, V domains shown) VH: EVQLVESGGGLVKPGGSLRLSCAASGFTFRDYSMNWVRQAPGKGLEWVSSISSGGSYIYYADSVKGRFTISRDNAKNSLYLQMNSLRAEDTAVYYCARGGSILWWLIDYWGQGTLVTVSS VL: NFMLTQPHSVSESPGKTVTISCTGSSGSIASNYVQWYQQRPGSAPTTVIYEDNQRPSGVPDRFSGSIDSSSNSASLTISGLKTEDEADYYCQSYDSTSRVVFGGGTKLTVL
Value Kind: binding result
Value Measured: binds
//
Binder: BD-923 (antibody, V domains shown) VH: EVLLVESGGGLVQPGRSLRLSCTASGFTFEDYAMHWVRQAPGKGLEWVSGMSWNSGTIGYADSVRGRFIISRDNAKNSLYLQMNSLRAEDTALYYCGKDRGFGESLYYVMDVWGQGATVTVSS VL: QSALTQPASVSGSPGQSITISCTGTSSDVGVYNYVSWYQQHPGKAPKLMIYNVSDRPSGVSNRFSGSKSGNTASLTISGLQAEDEADYYCSSYTSSSIVIFGGGTKLTVL
Value Kind: binding result
Value Measured: binds
//
Binder: BD-913 (antibody, V domains shown) VH: QVQLVQSGAEVKKPGSSVKVSCKASGGTFSTYAISWVRQAPGQGLEWMGGIIPIVGIANDAQKFQGRVTITADKSTSTAYMELSSLRSEDTAVFYCARAQRKQWPVEDAYDIWGQGTMVTVSS VL: QSVLTQPPSVSGAPGQRVTISCTGSSSNIGAGYDVHWYQQLPGTAPKLLIYGNSNRPSGVPDRFSGSKSGTSASLAITGLQAEDEADYYCQSYDSSLSGSVFGGGTKVTVL
Value Kind: binding result
Value Measured: binds
//
Binder: BD-713 (antibody, V domains shown) VH: EVQLVESGGGLVQPGRSLRLSCAASGFTFDDYAMHWVRQAPGKGLEWVSGMSWNSGTIGYADSVKGRFTIIRDNAKNSLYLQMIRLRAEDTALYYCAKASPRLDTAMAPFDYWGQGTLVTVSS VL: SYVLTQPPSVSVAPGKTARITCGGNNIGSKSVHWYQQKPGQAPALVIYYDNDRPSGLPERFSGSNSGNTATLTISRVEAGDEADYYCQVWHSSSDSLVFGGGTKLTVL
Value Kind: binding result
Value Measured: binds

Alright, here's another binder for you.
Note down binding result recorded for COVA1-16 (antibody, V domains shown) VH: QVQLVQSGAEVKKPGASVKVSCKASGYTFTSYYMHWVRQAPGQGLEWMGIINSSGGSTSYAQKFQGRVTMTRDTSTSTVYMELSSLRSEDTAVYYCARPPRNYYDRSGYYQRAEYFQHWGQGTLVTVSS VL: DIQLTQSPSSLSASVGDRVTITCQASQDISNYLNWYQQRPGKAPKLLIYDASNLETGVPSRFSGSGSGTDFTFTISSLQPEDIATYYCQQYDNPPLTFGGGTKLEIK
binds
